Just for reference, paper PMC10397247 is where these values come from.

Biological target: T1, 4H993-AA
T1 chain: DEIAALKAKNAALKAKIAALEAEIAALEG
Experiment: two-hybrid library CCmax;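 note: natural log of median RNA to DNA barcode read ratio; higher means stronger binding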
Conditions: mean of both orientations
Measured interaction score by item
Answer with a number only.

DKIAALKAKIAALEAENAALEAKIAALEG [4H2837-AA] | 1.44
DEIAALKAKIAALEAENAALKAEIAALKG [4H794-AA] | -1.99
DKNAALEAKIAALKAKIAALEAENAALEG [4H3427-AA] | -1.24

interaction score lookup needed for DEIAALKAENAALKAEIAALKAKIAALEG [4H717-AA] , thanks.
0.0522

Item under review: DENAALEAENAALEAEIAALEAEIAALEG [4H1153-AA] . Reported interaction score?
1.59

State the recorded interaction score for this entry: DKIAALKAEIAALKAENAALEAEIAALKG [4H2642-AA]
1.73

Value lookup for interaction score; key = DKNAALKAKIAALEAEIAALEAENAALKG [4H3844-AA]
-1.76
